assay: Selectivity index, ratio of IC50 for human HDFa cells to MIC for antibacterial activity against Pseudomonas aeruginosa; format: toxicity; conditions: read-out: Selectivity Index

| Mol Smiles | selectivity ratio |
| --- | --- |
| Cc1ccccc1NC(=O)COc1ccc(-c2nc3ccccc3[nH]2)cc1 | 6.01 |
| O=C(COc1ccc(-c2nc3cc(Cl)ccc3[nH]2)cc1)Nc1ccccc1 | 3.63 |
| Cc1ccc2[nH]c(-c3ccc(OCC(=O)Nc4ccccc4[N+](=O)[O-])cc3)nc2c1 | 14.6 |
| CN1CCN(c2ccc(-c3nc4ccccc4[nH]3)cc2)CC1 | 3.86 |

###

target: HTH-type quorum-sensing regulator RhlR (Pseudomonas aeruginosa (strain ATCC 15692 / PAO1 / 1C / PRS 101 / LMG12228)); assay: Inhibition of Pseudomonas aeruginosa PAO1 RhlR
Sequence (P54292 whole entry): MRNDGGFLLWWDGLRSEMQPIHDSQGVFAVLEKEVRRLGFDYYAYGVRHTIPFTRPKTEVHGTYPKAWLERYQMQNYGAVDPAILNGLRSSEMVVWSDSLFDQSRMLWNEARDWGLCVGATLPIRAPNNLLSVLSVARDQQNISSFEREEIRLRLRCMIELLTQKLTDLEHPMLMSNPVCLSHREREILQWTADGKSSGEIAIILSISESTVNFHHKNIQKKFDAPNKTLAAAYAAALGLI
pIC50: −log10 of the molar value.

| Mol Smiles | pIC50 |
| --- | --- |
| Nc1nc2ccccc2[nH]1 | 3.55 |
